Every entry's value here was drawn from patent US10710978B2.

target: LATS1 (Homo sapiens (Human)); experiment: KiNativ assay; assay type: binding; details: H929 live cell, read-out: inhibition (10 μM)
Parameter threshold = 10%. Response is class 1 when inhibition at 10 µM meets or exceeds it, else class 0.

COc1cc(NS(=O)(=O)C2CC2)ccc1-c1cnc(N)c(-c2ccc3c(c2)CCNC3=O)c1 class 0
Nc1ncc(-c2ccc(NS(=O)(=O)C3CC3)cc2OC2CCCCC2)cc1-c1ccc2c(c1)CCNC2=O class 1
Nc1ncc(-c2ccc(NS(=O)(=O)C3CC3)cc2F)cc1-c1ccc2c(c1)CCNC2=O class 0
Nc1ncc(-c2cccc3ncsc23)cc1-c1ccc2c(c1)CCNC2=O class 1
Nc1ncc(-c2cccc([N+](=O)[O-])c2F)cc1-c1ccc2c(c1)CCNC2=O class 1

Turning to the following compound.
Asked: Given CN(C1CC1)S(=O)(=O)c1ccc(-c2cnc(N)c(-c3ccc4c(c3)CCNC4=O)c2)c(F)c1 , state whether its inhibition at 10 µM is at least 10%.
Given back: class 0

----------
Kindly state IC50 for each of the entries shown.
target: STK24 (MST3) (Homo sapiens (Human), UniProt Q9Y6E0); assay: Z-lyte biochemical IC50 assay (Invitrogen); details: ATP concentration matched the Km
Sequence (Q9Y6E0 whole entry): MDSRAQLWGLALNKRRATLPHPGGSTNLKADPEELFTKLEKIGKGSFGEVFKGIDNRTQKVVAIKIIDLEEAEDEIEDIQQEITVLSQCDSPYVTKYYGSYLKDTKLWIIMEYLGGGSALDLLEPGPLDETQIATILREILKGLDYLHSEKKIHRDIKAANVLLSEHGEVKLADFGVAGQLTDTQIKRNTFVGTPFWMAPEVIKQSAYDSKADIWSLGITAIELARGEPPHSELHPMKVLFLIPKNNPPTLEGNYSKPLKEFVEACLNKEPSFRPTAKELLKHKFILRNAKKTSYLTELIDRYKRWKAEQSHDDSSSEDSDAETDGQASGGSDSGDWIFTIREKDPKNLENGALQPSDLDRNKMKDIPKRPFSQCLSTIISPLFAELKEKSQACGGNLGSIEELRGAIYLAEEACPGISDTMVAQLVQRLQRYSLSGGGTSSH

Please review the entries below; each comes with its answer.
COc1cc(NS(=O)(=O)C2CC2)ccc1-c1cnc(N)c(-c2ccc3c(c2)CCNC3=O)c1 200 to 900 nM
CN(C1CC1)S(=O)(=O)c1ccc(-c2cnc(N)c(-c3ccc4c(c3)CCNC4=O)c2)c(F)c1 40 to 200 nM
N#Cc1cccc(-c2cnc(N)c(-c3ccc4c(c3)CCNC4=O)c2)c1 200 to 900 nM

Consider the record given below.
Asked: Any idea what IC50 was measured for Nc1ncc(-c2cccc([N+](=O)[O-])c2)cc1-c1ccc2c(c1)CCNC2=O ?
Given back: > 900 nM

----------
biological target: PEK (Homo sapiens (Human), UniProt Q9NZJ5); assay: KiNativ assay; assay type: binding; details: H929 live cell, read-out: inhibition (10 μM)
Sequence (Q9NZJ5 30-1116): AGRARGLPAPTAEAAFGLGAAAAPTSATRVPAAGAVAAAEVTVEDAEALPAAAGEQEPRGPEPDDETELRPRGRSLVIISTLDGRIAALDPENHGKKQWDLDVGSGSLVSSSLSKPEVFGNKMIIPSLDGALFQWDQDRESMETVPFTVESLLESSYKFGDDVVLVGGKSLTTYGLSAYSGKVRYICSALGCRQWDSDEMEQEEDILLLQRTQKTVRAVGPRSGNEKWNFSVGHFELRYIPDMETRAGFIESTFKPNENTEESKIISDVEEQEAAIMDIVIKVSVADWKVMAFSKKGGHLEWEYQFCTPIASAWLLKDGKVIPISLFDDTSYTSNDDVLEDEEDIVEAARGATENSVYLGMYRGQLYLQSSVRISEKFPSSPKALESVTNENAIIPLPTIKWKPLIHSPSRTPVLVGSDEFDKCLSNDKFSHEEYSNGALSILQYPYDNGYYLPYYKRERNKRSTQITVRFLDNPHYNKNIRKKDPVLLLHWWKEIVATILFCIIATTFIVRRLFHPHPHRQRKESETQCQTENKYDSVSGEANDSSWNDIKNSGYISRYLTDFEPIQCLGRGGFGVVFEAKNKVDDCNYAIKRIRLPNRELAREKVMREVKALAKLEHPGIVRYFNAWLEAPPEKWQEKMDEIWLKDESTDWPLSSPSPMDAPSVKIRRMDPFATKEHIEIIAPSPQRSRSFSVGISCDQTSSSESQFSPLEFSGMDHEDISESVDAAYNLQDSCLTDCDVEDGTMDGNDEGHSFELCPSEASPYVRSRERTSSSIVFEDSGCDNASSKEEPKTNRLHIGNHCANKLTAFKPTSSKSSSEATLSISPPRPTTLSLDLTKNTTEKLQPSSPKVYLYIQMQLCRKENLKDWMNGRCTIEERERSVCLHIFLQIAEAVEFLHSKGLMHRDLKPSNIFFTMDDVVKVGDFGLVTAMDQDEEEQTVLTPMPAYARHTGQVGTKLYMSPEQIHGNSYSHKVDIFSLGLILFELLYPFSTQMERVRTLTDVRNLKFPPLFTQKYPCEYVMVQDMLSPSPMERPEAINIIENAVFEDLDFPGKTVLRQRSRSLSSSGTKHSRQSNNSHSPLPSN
Provide the recorded inhibition at 10 µM for the entries that follow.

Record excerpt, results attached:
compound	inhibition at 10 µM
Nc1ncc(-c2ccc(NS(=O)(=O)C3CC3)cc2OC2CCCCC2)cc1-c1ccc2c(c1)CCNC2=O [Compound I-65]	-12.9%
Nc1ncc(-c2ccc(NS(=O)(=O)C3CC3)cc2F)cc1-c1ccc2c(c1)CCNC2=O [Compound I-51]	-16.3%
COc1cc(NS(=O)(=O)C2CC2)ccc1-c1cnc(N)c(-c2ccc3c(c2)CCNC3=O)c1 [Compound I-50]	7.9%

// for each compound below, give its inhibition at 10 µM
1. Nc1ncc(-c2cccc3ncsc23)cc1-c1ccc2c(c1)CCNC2=O [Compound I-13]
2. Nc1ncc(-c2cccc([N+](=O)[O-])c2F)cc1-c1ccc2c(c1)CCNC2=O [Compound I-9]
3. CN(C1CC1)S(=O)(=O)c1ccc(-c2cnc(N)c(-c3ccc4c(c3)CCNC4=O)c2)c(F)c1 [Compound I-28]

Given back:
-40.8%
-100%
-15.7%

----------
Please respond with reported inhibition at 10 µM for every item in the list.
Biological target: UniProt O75460
Assay: KiNativ assay
Assay type: binding
Details: H929 live cell, read-out: inhibition (10 μM)
Protocol: Biochemical IC50s of the compounds of the present disclosure against various kinases were measured in a KiNativ assay. Compounds were screened in duplicate at 10 μM in H929 live cell. IC50 was measured via Mass spectroscopy (MS).
Numbers only, in %.

Example entries begin here.
Nc1ncc(-c2ccc(NS(=O)(=O)C3CC3)cc2F)cc1-c1ccc2c(c1)CCNC2=O -43.1
CN(C1CC1)S(=O)(=O)c1ccc(-c2cnc(N)c(-c3ccc4c(c3)CCNC4=O)c2)c(F)c1 -34.1
Nc1ncc(-c2cccc([N+](=O)[O-])c2F)cc1-c1ccc2c(c1)CCNC2=O -50.1
Nc1ncc(-c2ccc(NS(=O)(=O)C3CC3)cc2OC2CCCCC2)cc1-c1ccc2c(c1)CCNC2=O -6.3
COc1cc(NS(=O)(=O)C2CC2)ccc1-c1cnc(N)c(-c2ccc3c(c2)CCNC3=O)c1 -8.7

Asked: Reported inhibition at 10 µM for Nc1ncc(-c2cccc3ncsc23)cc1-c1ccc2c(c1)CCNC2=O : what is it?
Given back: -17

----------
target: MSK1 domain1 (Homo sapiens (Human)); assay: KiNativ assay; format: binding; details: H929 live cell, read-out: inhibition (10 μM)
Sequence (O75582 whole entry, the tested form may be a part): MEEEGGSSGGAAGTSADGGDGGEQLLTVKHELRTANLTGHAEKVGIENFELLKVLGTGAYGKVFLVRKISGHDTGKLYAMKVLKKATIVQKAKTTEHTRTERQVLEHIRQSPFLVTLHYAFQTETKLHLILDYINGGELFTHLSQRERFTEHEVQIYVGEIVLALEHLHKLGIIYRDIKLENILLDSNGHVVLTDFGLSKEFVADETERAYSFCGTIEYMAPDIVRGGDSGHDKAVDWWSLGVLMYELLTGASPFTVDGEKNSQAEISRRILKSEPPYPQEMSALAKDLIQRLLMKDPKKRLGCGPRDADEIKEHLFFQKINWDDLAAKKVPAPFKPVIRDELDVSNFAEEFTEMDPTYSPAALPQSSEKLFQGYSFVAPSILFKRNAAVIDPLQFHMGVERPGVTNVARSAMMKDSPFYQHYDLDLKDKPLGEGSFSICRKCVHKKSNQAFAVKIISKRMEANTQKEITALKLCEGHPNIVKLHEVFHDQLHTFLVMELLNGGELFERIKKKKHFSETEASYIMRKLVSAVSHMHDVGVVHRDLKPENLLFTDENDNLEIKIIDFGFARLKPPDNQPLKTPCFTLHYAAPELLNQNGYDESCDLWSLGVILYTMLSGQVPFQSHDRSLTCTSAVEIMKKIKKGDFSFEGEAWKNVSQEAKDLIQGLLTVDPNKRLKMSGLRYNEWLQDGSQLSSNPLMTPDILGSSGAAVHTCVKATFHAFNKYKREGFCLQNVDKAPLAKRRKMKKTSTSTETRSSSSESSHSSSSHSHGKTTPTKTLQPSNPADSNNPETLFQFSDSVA
For each of the molecules below, state its inhibition at 10 µM.
One number for each entry, in %.

Nc1ncc(-c2cccc([N+](=O)[O-])c2F)cc1-c1ccc2c(c1)CCNC2=O 2
COc1cc(NS(=O)(=O)C2CC2)ccc1-c1cnc(N)c(-c2ccc3c(c2)CCNC3=O)c1 0.1
Nc1ncc(-c2cccc3ncsc23)cc1-c1ccc2c(c1)CCNC2=O 9.5
CN(C1CC1)S(=O)(=O)c1ccc(-c2cnc(N)c(-c3ccc4c(c3)CCNC4=O)c2)c(F)c1 5.4
Nc1ncc(-c2ccc(NS(=O)(=O)C3CC3)cc2F)cc1-c1ccc2c(c1)CCNC2=O 11.4

# evaluate next
Asked: Given the entry Nc1ncc(-c2ccc(NS(=O)(=O)C3CC3)cc2OC2CCCCC2)cc1-c1ccc2c(c1)CCNC2=O , report its measured inhibition at 10 µM.
Given back: -52.5

----------
Target: CDK2 (Homo sapiens (Human))
Assay: KiNativ assay
Type: binding
Conditions: H929 live cell, read-out: inhibition (10 μM)
Method: Biochemical IC50s of the compounds of the present disclosure against various kinases were measured in a KiNativ assay. Compounds were screened in duplicate at 10 μM in H929 live cell. IC50 was measured via Mass spectroscopy (MS).
inhibition at 10 µM below 30% gives Condition not met; inhibition at 10 µM at or above it gives Condition met.

Consider the following illustrative entries.
CN(C1CC1)S(=O)(=O)c1ccc(-c2cnc(N)c(-c3ccc4c(c3)CCNC4=O)c2)c(F)c1 Condition not met
COc1cc(NS(=O)(=O)C2CC2)ccc1-c1cnc(N)c(-c2ccc3c(c2)CCNC3=O)c1 Condition not met
Nc1ncc(-c2cccc3ncsc23)cc1-c1ccc2c(c1)CCNC2=O Condition met
Nc1ncc(-c2cccc([N+](=O)[O-])c2F)cc1-c1ccc2c(c1)CCNC2=O Condition met
Nc1ncc(-c2ccc(NS(=O)(=O)C3CC3)cc2OC2CCCCC2)cc1-c1ccc2c(c1)CCNC2=O Condition not met

With those in mind, consider the next compound.
Asked: Threshold query (inhibition at 10 µM >= 30%) on Nc1ncc(-c2ccc(NS(=O)(=O)C3CC3)cc2F)cc1-c1ccc2c(c1)CCNC2=O
Given back: Condition met

----------
Assign inhibition at 10 µM to each entry below.
target: FRAP (Homo sapiens (Human)); assay: KiNativ assay; format: binding; settings: H929 live cell, read-out: inhibition (10 μM)
One number for each entry, in %.

Worked cases, inhibition at 10 µM given:
COc1cc(NS(=O)(=O)C2CC2)ccc1-c1cnc(N)c(-c2ccc3c(c2)CCNC3=O)c1 21.5
Nc1ncc(-c2ccc(NS(=O)(=O)C3CC3)cc2OC2CCCCC2)cc1-c1ccc2c(c1)CCNC2=O 47.9
CN(C1CC1)S(=O)(=O)c1ccc(-c2cnc(N)c(-c3ccc4c(c3)CCNC4=O)c2)c(F)c1 35.3

Each of the following entries comes with a recorded value; kindly state inhibition at 10 µM for each.
1. Nc1ncc(-c2cccc3ncsc23)cc1-c1ccc2c(c1)CCNC2=O
2. Nc1ncc(-c2ccc(NS(=O)(=O)C3CC3)cc2F)cc1-c1ccc2c(c1)CCNC2=O
3. Nc1ncc(-c2cccc([N+](=O)[O-])c2F)cc1-c1ccc2c(c1)CCNC2=O

Given back:
32.5
25.1
72.7

----------
biological target: JAK3 domain2 (Homo sapiens (Human)); experiment: KiNativ assay; format: binding; conditions: H929 live cell, read-out: inhibition (10 μM)
Sequence (P52333 whole entry, the tested form may be a part): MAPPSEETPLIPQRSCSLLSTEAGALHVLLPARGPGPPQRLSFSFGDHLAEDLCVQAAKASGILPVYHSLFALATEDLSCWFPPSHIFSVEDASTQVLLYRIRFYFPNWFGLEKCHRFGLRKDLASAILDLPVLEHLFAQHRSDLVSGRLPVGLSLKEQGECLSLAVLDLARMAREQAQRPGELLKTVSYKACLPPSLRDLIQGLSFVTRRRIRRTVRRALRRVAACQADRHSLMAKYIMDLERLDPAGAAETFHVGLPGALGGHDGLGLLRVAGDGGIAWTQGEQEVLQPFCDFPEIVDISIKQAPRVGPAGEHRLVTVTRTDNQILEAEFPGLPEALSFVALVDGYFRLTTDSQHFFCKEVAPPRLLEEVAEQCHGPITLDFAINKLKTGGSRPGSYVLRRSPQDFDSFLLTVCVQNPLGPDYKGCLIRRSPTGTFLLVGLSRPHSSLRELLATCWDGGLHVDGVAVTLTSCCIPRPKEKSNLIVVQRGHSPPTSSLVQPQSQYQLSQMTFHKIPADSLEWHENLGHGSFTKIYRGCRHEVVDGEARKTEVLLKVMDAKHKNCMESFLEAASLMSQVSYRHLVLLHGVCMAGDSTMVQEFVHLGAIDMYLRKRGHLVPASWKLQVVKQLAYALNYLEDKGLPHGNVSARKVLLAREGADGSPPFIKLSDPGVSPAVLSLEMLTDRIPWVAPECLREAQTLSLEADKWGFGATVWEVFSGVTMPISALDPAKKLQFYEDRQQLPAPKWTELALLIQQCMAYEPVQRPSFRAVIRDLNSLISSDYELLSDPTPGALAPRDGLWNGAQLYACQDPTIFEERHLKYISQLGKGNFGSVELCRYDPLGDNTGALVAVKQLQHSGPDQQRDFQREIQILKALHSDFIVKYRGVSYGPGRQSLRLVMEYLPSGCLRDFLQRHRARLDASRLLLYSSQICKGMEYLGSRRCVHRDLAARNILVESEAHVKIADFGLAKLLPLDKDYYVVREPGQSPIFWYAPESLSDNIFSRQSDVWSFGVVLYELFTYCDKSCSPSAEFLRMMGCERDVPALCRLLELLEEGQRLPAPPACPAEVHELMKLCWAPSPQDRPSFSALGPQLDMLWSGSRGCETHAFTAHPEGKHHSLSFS
property-label: inhibition at 10 µM (%)
Numbers only, in %.

Please review the entries below; each comes with its answer.
compound	observed-measurement
Nc1ncc(-c2cccc([N+](=O)[O-])c2F)cc1-c1ccc2c(c1)CCNC2=O [Compound I-9]	2.6
COc1cc(NS(=O)(=O)C2CC2)ccc1-c1cnc(N)c(-c2ccc3c(c2)CCNC3=O)c1 [Compound I-50]	-20.2
Nc1ncc(-c2cccc3ncsc23)cc1-c1ccc2c(c1)CCNC2=O [Compound I-13]	-12.8
Nc1ncc(-c2ccc(NS(=O)(=O)C3CC3)cc2F)cc1-c1ccc2c(c1)CCNC2=O [Compound I-51]	13.4
Nc1ncc(-c2ccc(NS(=O)(=O)C3CC3)cc2OC2CCCCC2)cc1-c1ccc2c(c1)CCNC2=O [Compound I-65]	52.1

Could you now look at the following compound, please?
Asked: Endpoint output: inhibition at 10 µM of CN(C1CC1)S(=O)(=O)c1ccc(-c2cnc(N)c(-c3ccc4c(c3)CCNC4=O)c2)c(F)c1 [Compound I-28] . Value?
Given back: 15.2

----------
Kindly supply the reported inhibition at 10 µM values for the records listed here.
target: SLK (Homo sapiens (Human)); assay: KiNativ assay; type: binding; details: H929 live cell, read-out: inhibition (10 μM)
Sequence (Q9H2G2 whole entry): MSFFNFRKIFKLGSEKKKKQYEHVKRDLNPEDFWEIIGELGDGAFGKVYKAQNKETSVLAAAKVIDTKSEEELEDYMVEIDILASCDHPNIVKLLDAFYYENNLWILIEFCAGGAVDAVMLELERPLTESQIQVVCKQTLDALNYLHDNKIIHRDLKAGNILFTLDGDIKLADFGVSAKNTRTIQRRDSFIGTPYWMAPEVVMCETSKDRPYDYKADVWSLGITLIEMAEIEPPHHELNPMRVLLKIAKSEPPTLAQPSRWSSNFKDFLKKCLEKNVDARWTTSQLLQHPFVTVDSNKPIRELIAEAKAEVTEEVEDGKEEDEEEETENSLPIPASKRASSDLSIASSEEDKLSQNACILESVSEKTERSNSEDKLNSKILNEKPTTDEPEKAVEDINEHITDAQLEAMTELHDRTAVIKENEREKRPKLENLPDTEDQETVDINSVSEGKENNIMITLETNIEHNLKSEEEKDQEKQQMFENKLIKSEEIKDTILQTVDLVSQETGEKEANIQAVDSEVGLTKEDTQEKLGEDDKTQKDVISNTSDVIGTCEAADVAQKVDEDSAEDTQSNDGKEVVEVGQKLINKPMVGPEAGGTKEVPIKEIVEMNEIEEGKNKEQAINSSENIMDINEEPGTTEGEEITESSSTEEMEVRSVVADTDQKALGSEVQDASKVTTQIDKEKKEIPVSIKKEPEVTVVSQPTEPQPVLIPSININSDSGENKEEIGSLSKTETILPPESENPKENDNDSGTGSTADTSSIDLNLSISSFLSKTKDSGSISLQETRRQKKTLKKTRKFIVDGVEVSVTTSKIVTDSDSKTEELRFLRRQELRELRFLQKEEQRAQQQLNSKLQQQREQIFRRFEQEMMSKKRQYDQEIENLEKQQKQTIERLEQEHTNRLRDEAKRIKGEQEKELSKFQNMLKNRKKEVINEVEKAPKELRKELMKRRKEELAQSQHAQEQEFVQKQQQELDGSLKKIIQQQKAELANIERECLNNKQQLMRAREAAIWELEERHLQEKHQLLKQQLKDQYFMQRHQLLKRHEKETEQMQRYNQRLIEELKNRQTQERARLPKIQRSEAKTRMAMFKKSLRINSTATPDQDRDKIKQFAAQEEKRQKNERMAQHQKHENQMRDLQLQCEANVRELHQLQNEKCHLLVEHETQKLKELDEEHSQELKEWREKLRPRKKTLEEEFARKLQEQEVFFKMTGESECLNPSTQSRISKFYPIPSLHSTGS
Numbers only, in %.

Nc1ncc(-c2ccc(NS(=O)(=O)C3CC3)cc2F)cc1-c1ccc2c(c1)CCNC2=O 85.6
Nc1ncc(-c2cccc([N+](=O)[O-])c2F)cc1-c1ccc2c(c1)CCNC2=O 95.3
Nc1ncc(-c2cccc3ncsc23)cc1-c1ccc2c(c1)CCNC2=O 49.2
CN(C1CC1)S(=O)(=O)c1ccc(-c2cnc(N)c(-c3ccc4c(c3)CCNC4=O)c2)c(F)c1 58.9
Nc1ncc(-c2ccc(NS(=O)(=O)C3CC3)cc2OC2CCCCC2)cc1-c1ccc2c(c1)CCNC2=O 97.8

# next compound below
Asked: Which measured inhibition at 10 µM value corresponds to COc1cc(NS(=O)(=O)C2CC2)ccc1-c1cnc(N)c(-c2ccc3c(c2)CCNC3=O)c1 ?
Given back: 70.6
